# Test Summary: NO release rate by UV spectrophotometry (decrease in 250-252 nm absorbance)
# Assay type: physicochemical
# Run Conditions: phosphate buffer, pH 7.4, pH 7.4 phosphate buffer (0.1 M), 37° C., 50 to 100 μM; read-out: t1/2 of initial phase

{"Entry Smiles": "[Na+].[Na+].[O-]/N=[N+](\\[O-])N1CCNCCNCCN(/[N+]([O-])=N/[O-])CC1", "half-life [min]": 1.7}
{"Entry Smiles": "[Na+].[Na+].[O-]/N=[N+](\\[O-])N1CCCN(/[N+]([O-])=N/[O-])CCNCCCNCC1", "half-life [min]": 1.7}

Each recorded value in this set is attributed to patent US7928096B2.
